melting point values by entry

A selection of reference data follows.
Cc1ccc2c(c1)c(N1CCN(C(=O)c3ccco3)CC1)c(C#N)c(=O)n2Cc1ccc(F)cc1
276 °C
CN1CC(=O)N(c2ccc3c(c2)CCC3)C1=S
158 to 160 °C
Cc1nn(-c2cccc(C(F)(F)F)c2)c(C)c1CC(=O)O
83 to 85 °C
COCCOc1cc2ncc(C#N)c(NC3CCCC3)c2cc1OC
87 to 90 °C
CCOC(=O)c1c(O)c2cnc(-c3ccccc3)nc2n(CCOC)c1=O
178 to 179 °C

Name the recorded melting point for CS(=O)(=O)c1ccc(-c2ccc3cnc(Nc4ccc(N5CCOCC5)nc4)nn23)cc1 . 171 to 177 °C

What value of measured melting point is listed for CC(C)Cn1cnc2c(N)nc3cc(Br)ccc3c21 ? 218 to 220 °C

Using the record for O=C(O)C(=O)c1ccc(SCCOC2CCCCCCC2)cc1 , report its melting point. 84 to 85 °C

Entry O=C1C(c2cccc(Br)c2)n2cncc2CN1Cc1ccccn1 (configuration not stated) has what melting point? 52 to 56 °C

Which measured melting point value corresponds to O=C(O)c1cc(-n2c(=O)cc(C(F)(F)F)[nH]c2=O)ccc1Cl ? 311 to 312 °C

Endpoint output: melting point of CC(C)(C)c1nnc(Oc2ccc(N)cc2)o1 . Value? 80 to 81 °C

Given CCc1nn(CCNS(=O)(=O)c2cn(C)cn2)c(CC)c1Cc1cc(Cl)cc(Cl)c1 , state its recorded melting point. 172 to 174 °C

Requested field: melting point. Item: CN(C(=O)OCc1ccccc1)[C@H]1CNc2ccccc2C1 80 °C

Value lookup for melting point; key = Cn1c(=O)n(CCCCI)c(=O)c2ccccc21 105 to 107 °C

Look at this molecule and give its reported melting point. CCOC(=O)CCC(C)C1CCC2C3C(O)C(CC)C4CC(O)CCC4(C)C3CCC12C (configuration not stated) 55 to 57 °C

====

The compounds listed here are annotated with their melting point.

Completed entries (count: 10):
O=C1C(O)=C(C2CCCCC2)C(=O)c2ccccc21
128 to 130 °C
CCn1c(=O)c2[nH]c(/C=C/c3ccc(O)cc3)nc2n(CC)c1=O
> 270 °C
O=C(Nc1ccc(Oc2ccc(Br)cc2)nc1)c1ccccc1C(c1ccc(O)cc1)c1ccc(O)cc1
218 to 223 °C
CS(=O)(=O)C(CC(S(C)(=O)=O)S(C)(=O)=O)S(C)(=O)=O
278 to 280 °C
CCN(CC)c1ccc(C=O)c(OCc2ccccn2)c1
78 to 81 °C
Clc1nc2c(-c3ccccc3)cccc2o1
85.8 °C
Cc1cccc(NC(=O)NC2N=C(CC(C)C)c3cccc(C)c3N(CC(=O)C3CCCCC3)C2=O)c1 (stereo not drawn)
152 to 155 °C
C=CCc1cc2c(C)c(C#N)c(=O)oc2c(C)c1O
163 to 164 °C
COc1ccc(OC)c2c(=O)cc(C(=O)O)sc12
210 to 212 °C
C1=C(c2c[nH]c3ccccc23)CCN(CC2CCc3ccccc3O2)C1 (stereo not drawn)
171 to 173 °C

Look at this compound and give its reported melting point. N#Cc1cc2c(c(C(=O)O)c1)NCCC2 238 °C

Please look up its melting point: O=C(O)COc1ccc(SCc2ccc(OCc3ccc(OC(F)(F)F)cc3)cc2)c2c1CCC2 140 to 142 °C

Query (compound): O=C1NCCC1=Cc1ccc(C2=NCCO2)cc1 ; field requested: melting point 258 to 262 °C

Which melting point reading was recorded for the compound CCCCCCCCSc1nc(NCC(C)(C)c2cc(C(C)(C)C)c(O)c(C(C)(C)C)c2)nc(NC2CC(C)(C)NC(C)(C)C2)n1 ? 130 °C

Would you kindly share the measured melting point for Cc1nc2n(c(=O)c1CCCl)CCCN2Cc1ccccc1 ? 114 °C

// lookup melting point for CC(C)CC(NC(=O)CNc1ccc(Cl)cc1)C(=O)NCC#N (stereo not drawn) 131 to 134 °C

Look up melting point for this compound: Cc1c(C)c2c(c(C)c1O)SC(C)(c1ccccc1)O2 (stereo not drawn) 80 to 81 °C

What measured melting point goes with CCOC(=O)c1c(Nc2cc(F)ccc2[N+](=O)[O-])sc2ccccc12 ? 137 to 140 °C

Find the recorded melting point belonging to Nc1cc(-c2ccco2)ccc1Nc1cccc(-n2cccc2)c1 and report it. 163 to 164 °C

Look at this compound and give its reported melting point. CC(COc1ccc(O)c(C(N)=O)c1)NCC(O)c1ccccc1 (stereo not drawn) 152 to 154 °C

Any idea what its melting point is? The compound is COc1cc(-c2nc(N)sc2SCC2CCCC2)c(OC)cc1C 88 to 89 °C

Given the entry CNc1cc(Oc2ccc(Cl)cc2Cn2cncn2)ccc1[N+](=O)[O-] , report its measured melting point. 150 °C

If you can, please state the reported melting point value of CCOc1ccc2c(c1)n(C1CCCCC1)c(=O)n2S(=O)(=O)c1ccc([N+](=O)[O-])cc1OC . 162 °C

Looking for the measured melting point of CC1(C)OC(=O)Nc2ccc(-c3ccccc3-c3ncsn3)cc21 , can you help? 214 to 216 °C

Fill blank: measured melting point of the compound CCN1C(=O)C(=O)N(c2cc(Cl)ccc2C)C1=S is ____. 173 to 174 °C

May I ask what melting point has been recorded for COC(=O)[C@@H]1O[C@H]1c1ccc(OC)cc1 ? 86 to 87 °C

Look up melting point: CCCCCCCCCCCCCCCCCCOc1ccc2c(c1OCCCCCCCCCCCCCCCCCC)C(=O)c1ccccc1C2=O 100 to 107 °C

GET /values?readout=melting point&item= CC=CCOc1ccc(C)c2c1C(=O)CC2 87.5 to 92 °C

Suppose we examine the compound Cc1cc(OC(F)F)nc(S(C)(=O)=O)n1 ; what melting point value has been reported? 86 to 88 °C

Record request: melting point value, item CSc1nc(C)n(-c2ccc(N)cc2)n1 130 to 136 °C

Recorded melting point for O=C(NC(=O)c1cccs1)c1cncc([N+](=O)[O-])c1 , please? 187 °C
